This listing pairs molecules with measured level at 10 min.
assay: in vivo; conditions: female, SD, rat, iv, 5 mg/kg
Report as a plain number; the unit ng/mL is understood.

Worked cases, level at 10 min given:
-- ask Supply reported level at 10 min belonging to this molecule: CN1CC[C@]23c4c5ccc(O)c4O[C@H]2[C@@H](OCCOCCOCCOCCOCCOCCOCCOCCOCCO[C@H]2C=C[C@H]4[C@H]6Cc7ccc(O)c8c7[C@@]4(CCN6C)[C@H]2O8)C=C[C@H]3[C@H]1C5 [α-6-O-PEG9-(morphine)2]
-- reply 1230

-- ask Supply reported level at 10 min belonging to this molecule: CN1CC[C@]23c4c5ccc(O)c4O[C@H]2[C@@H](OCCOCCOCCO[C@H]2C=C[C@H]4[C@H]6Cc7ccc(O)c8c7[C@@]4(CCN6C)[C@H]2O8)C=C[C@H]3[C@H]1C5 [α-6-O-PEG3-(morphine)2]
-- reply 1020

Now let's try a different one.
-- ask Supply reported level at 10 min belonging to this molecule: CN1CC[C@]23c4c5ccc(O)c4O[C@H]2[C@@H](OCCOCCOCCOCCO[C@H]2C=C[C@H]4[C@H]6Cc7ccc(O)c8c7[C@@]4(CCN6C)[C@H]2O8)C=C[C@H]3[C@H]1C5 [α-6-O-PEG4-(morphine)2]
-- reply 1120
